settings: pH 5
Ends that are not written are not given here.
property name: Kp (lipid/water partition coefficient)
Answers are plain numbers.

Solved cases (3 shown):
- sequence string: "GLFGAIAGFIEGGATGMIDGWYGS [W14A]"
  Kp (lipid/water partition coefficient): 6265
- sequence string: "GLFGAIAGFIEGGWTGMIDGWYGS [WT, reference compound]"
  Kp (lipid/water partition coefficient): 10455
- sequence string: "GLFAAIAAFIEGGWTAMIDAWYGS [G4AG8AG16AG20A]"
  Kp (lipid/water partition coefficient): 333

Moving on to another sequence below.
// query Name the recorded Kp (lipid/water partition coefficient) of the sequence listed here: GLFGAIAGFIEAAWTGMIDGWYGS [G12AG13A]
// result 442
